# TESTED_TARGET: Tie2 receptor tyrosine kinase (Homo sapiens, UniProt Q02763)
# Sequence (Q02763 23-1124): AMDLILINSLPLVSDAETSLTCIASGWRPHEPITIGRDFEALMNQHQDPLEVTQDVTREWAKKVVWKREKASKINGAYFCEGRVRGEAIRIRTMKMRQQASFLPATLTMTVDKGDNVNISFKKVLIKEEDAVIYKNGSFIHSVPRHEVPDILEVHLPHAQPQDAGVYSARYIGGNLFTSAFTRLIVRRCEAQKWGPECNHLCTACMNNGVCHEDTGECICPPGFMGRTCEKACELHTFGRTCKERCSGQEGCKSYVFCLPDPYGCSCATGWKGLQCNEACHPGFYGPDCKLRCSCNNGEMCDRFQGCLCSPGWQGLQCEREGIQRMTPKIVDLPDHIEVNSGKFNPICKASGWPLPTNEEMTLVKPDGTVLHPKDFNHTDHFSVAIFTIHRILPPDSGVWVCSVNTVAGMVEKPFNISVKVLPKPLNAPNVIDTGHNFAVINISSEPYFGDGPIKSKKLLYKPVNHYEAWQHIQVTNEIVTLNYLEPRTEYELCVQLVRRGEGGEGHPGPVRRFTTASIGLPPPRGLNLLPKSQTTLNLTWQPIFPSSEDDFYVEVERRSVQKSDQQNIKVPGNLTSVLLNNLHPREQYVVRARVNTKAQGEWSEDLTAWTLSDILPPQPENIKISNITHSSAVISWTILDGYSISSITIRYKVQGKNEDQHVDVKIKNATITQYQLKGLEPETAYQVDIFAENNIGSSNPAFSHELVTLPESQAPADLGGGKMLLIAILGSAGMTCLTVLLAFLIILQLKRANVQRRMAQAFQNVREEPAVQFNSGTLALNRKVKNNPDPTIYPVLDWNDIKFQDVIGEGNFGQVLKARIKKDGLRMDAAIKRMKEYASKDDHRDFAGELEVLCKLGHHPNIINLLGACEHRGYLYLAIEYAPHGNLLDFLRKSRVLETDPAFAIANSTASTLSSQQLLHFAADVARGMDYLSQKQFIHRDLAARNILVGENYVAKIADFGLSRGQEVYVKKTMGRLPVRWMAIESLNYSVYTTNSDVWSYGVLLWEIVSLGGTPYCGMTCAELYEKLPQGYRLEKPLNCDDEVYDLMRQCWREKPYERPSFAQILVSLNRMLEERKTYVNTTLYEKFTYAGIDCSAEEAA
# EXPERIMENT_NOTES: Cellular Tie2 autophosphorylation assay (Test (b))
# Format: cell-based
# Design: one can use natural cell lines or primary cells which are known to express the receptor of choice; endogenous in cells; host or cells: EA.hy926/B3 cells (HUVEC named as alternative)
# CONDITION_SUMMARY: Ang1 ligand stimulated whole cells (e.g. EA.hy926/B3); read-out: IC50 (μM) Test (b): Inhibition of autophosphorylation of Tie2 receptor tyrosine kinase
METRIC: IC50 (µM)

CC(C)(C)c1cc(NC(=O)Nc2cccc(C#Cc3cccnc3N)c2)no1 0.077

1: CC(C)(C)c1cc(NC(=O)Nc2cccc(C#Cc3cnc(N)cn3)c2)no1
2: CC(C)(C)c1cc(NC(=O)Nc2cccc(C#Cc3ccc(N)nc3)c2)no1
Lookup: Between 1 and 2 , whose measured IC50 reads higher? Response format: the label of the selected entry.
Found: 2
(2: 0.031 µM, 1: 0.02 µM)
